# System: Hepatitis C virus
# RUN_DESCRIPTION: Antiviral activity against HCV genotype 1a infected in GLuc-1 cells
# Type: functional, organism-based, Hepacivirus hominis
pEC50: −log10 of the molar value.
In this section we review reported pEC50 values for a set of compounds.
REPORTED_PROPERTY: pEC50

>  <RECORD_SMILES>
C[C@@]1(O)[C@H](O)[C@@H](CO)O[C@H]1c1coc2c(N)ncnc12

>  <REPORTED_PROPERTY>
pEC50

>  <ENDPOINT_VALUE>
5.27

$$$$
>  <RECORD_SMILES>
C[C@@]1(O)[C@H](O)[C@@H](CO)O[C@H]1n1cnc2c(N)ncnc21

>  <REPORTED_PROPERTY>
pEC50

>  <ENDPOINT_VALUE>
6.64

$$$$

====

# RUN_DESCRIPTION: Oral bioavailability in mouse at 5 mg/kg by reverse phase chromatography
# Assay type: ADME, organism-based
# CONDITION_PARAMETERS: in vivo

>  <RECORD_SMILES>
C[C@@]1(O)[C@H](O)[C@@H](CO)O[C@H]1c1coc2c(N)ncnc12

>  <bioavailability>
75%

$$$$

====

# RUN_DESCRIPTION: Clearance in female mouse at 1 mg/kg, iv by reverse phase chromatography
# Assay type: ADME, organism-based
# CONDITION_PARAMETERS: in vivo

>  <RECORD_SMILES>
C[C@@]1(O)[C@H](O)[C@@H](CO)O[C@H]1c1coc2c(N)ncnc12

>  <clearance (mL/min/kg)>
11.6

$$$$

====

# RUN_DESCRIPTION: AUC in Sprague-Dawley rat at 1 mg/kg, iv by reverse phase chromatography
# Type: ADME, organism-based
# CONDITION_PARAMETERS: in vivo
REPORTED_PROPERTY: AUC (µg·h/mL)

>  <RECORD_SMILES>
C[C@@]1(O)[C@H](O)[C@@H](CO)O[C@H]1c1coc2c(N)ncnc12

>  <UNIT_LABEL>
µg·h/mL

>  <ENDPOINT_VALUE>
0.699

$$$$

====

# RUN_DESCRIPTION: Drug level in Sprague-Dawley rat liver assessed as triphosphate metabolite concentration at 2 mg/kg, iv measured after 1 hr in presence of ATP by LC-MS/MS analysis
# Format: ADME, organism-based
# CONDITION_PARAMETERS: in vivo, read-out: Ct
REPORTED_PROPERTY: concentration (µM)

>  <RECORD_SMILES>
C[C@@]1(O)[C@H](O)[C@@H](CO)O[C@H]1c1coc2c(N)ncnc12

>  <REPORTED_PROPERTY>
concentration

>  <ENDPOINT_VALUE>
22.6

$$$$

====

# RUN_DESCRIPTION: Volume of distribution in Sprague-Dawley rat at 1 mg/kg, iv by reverse phase chromatography
# Assay type: ADME, organism-based
# CONDITION_PARAMETERS: in vivo

>  <RECORD_SMILES>
C[C@@]1(O)[C@H](O)[C@@H](CO)O[C@H]1c1coc2c(N)ncnc12

>  <UNIT_LABEL>
L/kg

>  <Vd>
33.2

$$$$

====

# RUN_DESCRIPTION: Oral bioavailability in Sprague-Dawley rat at 5 mg/kg by reverse phase chromatography
# Assay type: ADME, organism-based
# CONDITION_PARAMETERS: in vivo

>  <RECORD_SMILES>
C[C@@]1(O)[C@H](O)[C@@H](CO)O[C@H]1c1coc2c(N)ncnc12

>  <UNIT_LABEL>
%

>  <bioavailability>
55

$$$$

====

# RUN_DESCRIPTION: Half life in Sprague-Dawley rat at 1 mg/kg, iv by reverse phase chromatography
# Assay type: ADME, organism-based
# CONDITION_PARAMETERS: in vivo

>  <RECORD_SMILES>
C[C@@]1(O)[C@H](O)[C@@H](CO)O[C@H]1c1coc2c(N)ncnc12

>  <half-life / h>
28.4

$$$$

====

# RUN_DESCRIPTION: Toxicity in po dosed rat assessed as no observable adverse effect level
# Format: organism-based
# CONDITION_PARAMETERS: in vivo
REPORTED_PROPERTY: NOAEL

>  <RECORD_SMILES>
C[C@@]1(O)[C@H](O)[C@@H](CO)O[C@H]1c1coc2c(N)ncnc12

>  <ENDPOINT_VALUE>
≤ 9 mg/kg

$$$$

====

# RUN_DESCRIPTION: Metabolic stability in cryopreserved Non human primate hepatocyte assessed as half life in presence of NADPH
# Assay type: ADME, cell-based
# CONDITION_PARAMETERS: cryopreserved hepatocytes

>  <RECORD_SMILES>
C[C@@]1(O)[C@H](O)[C@@H](CO)O[C@H]1c1coc2c(N)ncnc12

>  <half-life>
> 1 h

$$$$

====

# RUN_DESCRIPTION: AUC (0 to infinity) in Cynomolgus monkey at 10 mg/kg, po administered for 7 days by reverse phase chromatography
# Format: ADME, organism-based, Macaca fascicularis
# CONDITION_PARAMETERS: in vivo, time 7 day

>  <RECORD_SMILES>
C[C@@]1(O)[C@H](O)[C@@H](CO)O[C@H]1c1coc2c(N)ncnc12

>  <AUC(0-inf)>
8010 ng·h/mL

$$$$

====

# RUN_DESCRIPTION: Tmax in Sprague-Dawley rat at 10 mg/kg, po by reverse phase chromatography
# Assay type: ADME, organism-based
# CONDITION_PARAMETERS: in vivo

>  <RECORD_SMILES>
C[C@@]1(O)[C@H](O)[C@@H](CO)O[C@H]1c1coc2c(N)ncnc12

>  <Tmax, min>
30

$$$$

====

# RUN_DESCRIPTION: AUC in Cynomolgus monkey at 1 mg/kg, iv by reverse phase chromatography
# Type: ADME, organism-based, Macaca fascicularis
# CONDITION_PARAMETERS: in vivo

>  <RECORD_SMILES>
C[C@@]1(O)[C@H](O)[C@@H](CO)O[C@H]1c1coc2c(N)ncnc12

>  <AUC [ng·h/mL]>
1930

$$$$

====

# RUN_DESCRIPTION: Oral bioavailability in Sprague-Dawley rat at 10 mg/kg by reverse phase chromatography
# Assay type: ADME, organism-based
# CONDITION_PARAMETERS: in vivo
REPORTED_PROPERTY: bioavailability (%)

>  <RECORD_SMILES>
C[C@@]1(O)[C@H](O)[C@@H](CO)O[C@H]1c1coc2c(N)ncnc12

>  <ENDPOINT_VALUE>
71.2

$$$$

====

# RUN_DESCRIPTION: AUC in Sprague-Dawley rat at 5 mg/kg, po by reverse phase chromatography
# Format: ADME, organism-based
# CONDITION_PARAMETERS: in vivo

>  <RECORD_SMILES>
C[C@@]1(O)[C@H](O)[C@@H](CO)O[C@H]1c1coc2c(N)ncnc12

>  <AUC, µg·h/mL>
1.92

$$$$

====

# RUN_DESCRIPTION: AUC in female mouse at 5 mg/kg, po by reverse phase chromatography
# Format: ADME, organism-based
# CONDITION_PARAMETERS: in vivo
REPORTED_PROPERTY: AUC (ng·h/mL)

>  <RECORD_SMILES>
C[C@@]1(O)[C@H](O)[C@@H](CO)O[C@H]1c1coc2c(N)ncnc12

>  <ENDPOINT_VALUE>
3250

$$$$

====

# RUN_DESCRIPTION: Cmax in female mouse at 5 mg/kg, po by reverse phase chromatography
# Format: ADME, organism-based
# CONDITION_PARAMETERS: in vivo

>  <RECORD_SMILES>
C[C@@]1(O)[C@H](O)[C@@H](CO)O[C@H]1c1coc2c(N)ncnc12

>  <Cmax>
1060 ng/mL

$$$$

====

# RUN_DESCRIPTION: Cmax in Cynomolgus monkey at 10 mg/kg, po administered for 7 days by reverse phase chromatography
# Format: ADME, organism-based, Macaca fascicularis
# CONDITION_PARAMETERS: in vivo, time 7 day
REPORTED_PROPERTY: Cmax (ng/mL)

>  <RECORD_SMILES>
C[C@@]1(O)[C@H](O)[C@@H](CO)O[C@H]1c1coc2c(N)ncnc12

>  <ENDPOINT_VALUE>
2510

$$$$

====

# RUN_DESCRIPTION: AUC in Cynomolgus monkey at 10 mg/kg, po administered for 7 days by reverse phase chromatography
# Type: ADME, organism-based, Macaca fascicularis
# CONDITION_PARAMETERS: in vivo, time 7 day

>  <RECORD_SMILES>
C[C@@]1(O)[C@H](O)[C@@H](CO)O[C@H]1c1coc2c(N)ncnc12

>  <AUC at 168 h / ng·h/mL>
7260

$$$$
